Provide the recorded growth for the entries that follow.
- System: 786-0 renal
- methodSummary: NCI-60 one-dose screen, 48 h (100 = growth as untreated, 0 = no growth, -100 = all killed)
- testConditions: 10 µM unless noted
About 83,000 compounds went through this panel and 20% of them were active in at least one assay; those are over-represented in the sample as a whole.
Provide the reading as a plain figure in %.

(Q) Could you tell me which growth is on file for `CNCCCn1c2c(c3ccc([N+](=O)[O-])cc3c1=O)C(=O)c1cc(OC)cnc1-2` ?
(A) -78.5

(Q) Could you tell me which growth is on file for `CCCNc1nc(SC)nc(-c2cccc(N)c2)c1C#N` ?
(A) 102

(Q) Could you tell me which growth is on file for CCN(CC)CC(O)c1cc(-c2ccc(Cl)cc2)nc2c(C)c(Cl)ccc12 (stereo not given) ?
(A) -95.9

(Q) Could you tell me which growth is on file for `O=C1/C(=C/c2ccc(F)cc2)CN(C(=O)CCN2CCC(=NO)CC2)C/C1=C\c1ccc(F)cc1` ?
(A) -44.7

(Q) Could you tell me which growth is on file for COc1ccc(C2c3ccc4ccccc4c3Oc3ncnc(N)c32)cc1 (stereo not given) ?
(A) 97.1

(Q) Could you tell me which growth is on file for `CC/C=C\C[C@H](F)C/C=C1/C(=O)C=C[C@@H]1C/C=C\CCCC(=O)O` ?
(A) 82.4

(Q) Could you tell me which growth is on file for COc1cc(C2CC(=O)Nc3c2c(C)nn3-c2nc3ccccc3[nH]2)cc(OC)c1OC (stereo not given) ?
(A) 110

(Q) Could you tell me which growth is on file for `CCOC(=O)c1cnc2cc(Cl)c(F)cc2c1Nc1cccc(NS(C)(=O)=O)c1` ?
(A) 95.6

(Q) Could you tell me which growth is on file for `COc1ccc(/C=C2\CN(C(=O)CCN3CCC(=NO)CC3)C/C(=C\c3ccc(OC)cc3)C2=O)cc1` ?
(A) -10.3

(Q) Could you tell me which growth is on file for `O=c1c2cccc3c(NC4CCCCC4)ccc(c32)c2nc3ccccc3n12` ?
(A) 108

(Q) Could you tell me which growth is on file for `Nc1cc(-c2nc3sccn3c2-c2ccnc(NCCCNS(=O)(=O)c3ccc(F)cc3)n2)ccc1F` ?
(A) 61.3

(Q) Could you tell me which growth is on file for `CC(=O)Oc1ccc(Nc2c3ccccc3nc3ccccc23)cc1` ?
(A) 16.5

(Q) Could you tell me which growth is on file for `COc1ccc2nc(NC(=O)c3cccnc3Nc3cc(OC)c(OC)c(OC)c3)sc2c1` ?
(A) -66.9

(Q) Could you tell me which growth is on file for `Clc1ccc(-c2nnc(COc3ccccc3Cl)o2)cc1` ?
(A) 23.3

(Q) Could you tell me which growth is on file for `c1c2c(cc3c1OCO3)Cc1cc3c(cc1Cc1cc4c(cc1C2)OCO4)OCO3` ?
(A) 110

(Q) Could you tell me which growth is on file for `O=C1C=CC(=O)c2c1nc1n2CCCC1` ?
(A) 93.3

(Q) Could you tell me which growth is on file for `CC(C)[C@H]1COC(=O)N1[C@@H]1C(=O)N([C@@H](CCC(=O)N2CCN(C3CCCC3)CC2)C(=O)N[C@@H]2CCCc3ccccc32)[C@@H]1/C=C/c1cccc(Br)c1` ?
(A) 44.3

(Q) Could you tell me which growth is on file for `CC/C=C\C[C@H](O)C/C=C1/C(=O)C=C[C@@H]1C/C=C\CCCC(N)=O` ?
(A) -24.2

(Q) Could you tell me which growth is on file for `COc1cc(OC)c(/C=C/S(=O)(=O)Cc2cnc(OC)c(N)c2)c(OC)c1` ?
(A) 16.2

(Q) Could you tell me which growth is on file for C=C1CCC2C3(C)COC(c4cccc(Cl)c4)OC3CCC2(C)C1/C=C/C1=CCOC1=O (stereo not given) ?
(A) 65.9
